For FAPα enzyme (Homo sapiens, UniProt Q12884), measured pIC50 is reported for the entries below.
One number for each entry, as −log10 of the molar value.

molecule: N#C[C@@H]1CC(F)(F)CN1C(=O)CNC(=O)c1ccnc2ccc(NC(=O)[C@H]3CC[C@H](CNC(=O)CN4CCN(CC(=O)O)CCN(CC(=O)O)CCN(CC(=O)O)CC4)CC3)cc12
tested_system: FAPα enzyme (Homo sapiens, UniProt Q12884)
Sequence (Q12884 whole entry, species assumed): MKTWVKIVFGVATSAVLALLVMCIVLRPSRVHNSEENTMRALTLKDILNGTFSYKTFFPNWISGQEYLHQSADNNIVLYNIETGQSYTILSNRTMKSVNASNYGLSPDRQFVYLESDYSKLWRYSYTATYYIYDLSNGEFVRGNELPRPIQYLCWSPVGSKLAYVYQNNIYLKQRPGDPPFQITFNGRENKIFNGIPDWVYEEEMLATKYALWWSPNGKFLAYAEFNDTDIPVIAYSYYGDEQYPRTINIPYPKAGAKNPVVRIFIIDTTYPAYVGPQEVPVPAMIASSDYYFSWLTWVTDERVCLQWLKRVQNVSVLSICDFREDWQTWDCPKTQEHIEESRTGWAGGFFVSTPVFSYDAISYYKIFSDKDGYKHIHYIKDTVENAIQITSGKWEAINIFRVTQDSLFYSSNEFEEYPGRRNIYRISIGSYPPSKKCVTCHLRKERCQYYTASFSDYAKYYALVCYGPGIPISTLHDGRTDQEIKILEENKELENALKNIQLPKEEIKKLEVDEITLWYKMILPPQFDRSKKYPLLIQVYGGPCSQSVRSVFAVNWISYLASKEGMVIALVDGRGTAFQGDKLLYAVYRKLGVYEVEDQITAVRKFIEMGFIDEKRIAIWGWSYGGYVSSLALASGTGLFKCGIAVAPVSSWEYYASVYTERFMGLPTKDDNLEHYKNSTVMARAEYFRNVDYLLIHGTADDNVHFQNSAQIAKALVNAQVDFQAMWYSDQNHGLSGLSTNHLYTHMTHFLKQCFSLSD
pIC50: 9.14

Let us move to another entry and its pIC50.
-- ask Which pIC50 reading was recorded for the molecule N#C[C@@H]1CC(F)(F)CN1C(=O)CNC(=O)c1ccnc2ccc(NC(=O)C3CCC4(CC3)CN(C(=O)CN3CCN(CC(=O)O)CCN(CC(=O)O)CCN(CC(=O)O)CC3)CCO4)cc12 (some centres unmarked) ?
-- reply 9.24

Recorded values, source patent EP4711362A1.
